Test: chemical genetic growth profiling, strain panel (AID 1159580);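 further: tested at 20 µM; growth read once vehicle control cultures reached saturation at 30 °C; 1 = growth at the plate median or of vehicle wells; lower values mean less growth of the strain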
Details: S. cerevisiae deletion strains, growth OD, locus YLL026W, stronger effect = lower value
Hit rate of the full screen: of about 5,500 compounds, about 2,000 (36%) were called active. Inconclusive results (about 18%) are left out. Some of the results follow.
property_name: normalized growth

molecule="CC(=O)O[C@@H]1CC2C(C)(C)C=CC(=O)[C@]2(C)C2CC[C@@]3(C)[C@H](c4ccoc4)OC(=O)C4OC43[C@@]21C (stereo partly specified)" observed=1
molecule=CCCCC1=NC2(CCCC2)C(=O)N1Cc1ccc(-c2ccccc2-c2nn[nH]n2)cc1 observed=1.02
molecule="O=C1C=CC2=C3c4cc(O)c(O)cc4CC3(O)COC2=C1O (stereo unspecified)" observed=1.02
molecule="CC(C)NCC(O)c1ccc2ccccc2c1 (stereo unspecified)" observed=0.998
molecule="O=C1O[C@H](C(O)CO)C(O)=C1O (stereo partly specified)" observed=0.998
molecule="O=c1[nH]c(=O)n(C2C[C@@H](O)[C@@H](CO)O2)cc1F (stereo partly specified)" observed=0.985
molecule=OC[C@@H]1CCCN2CCCC[C@H]12 observed=1.03
molecule="CC1(C)C(=O)C=C[C@@]2(C)C1=C(O)C(=O)[C@]1(C)C2CC[C@@]2(C)[C@H](c3ccoc3)C[C@H]3O[C@]321 (stereo partly specified)" observed=0.944
molecule="CC(C)(C)NCC(O)c1ccccc1Cl (stereo unspecified)" observed=0.983
molecule="CN1C(CC(=O)c2ccccc2)CCCC1CC(O)c1ccccc1 (stereo unspecified)" observed=0.98
molecule=O=C1C=CC2=C3c4cc(O)c(O)cc4C[C@@]3(O)COC2=C1 observed=0.986
